system-under-test: Cdk2(H71C) (C177A) (Homo sapiens, UniProt P24941, C177A/H71C)
Construct: poly-histidine; made in house; host or cells: E. coli
assay-overview: Kinetic thiol consumption assay with Cdk2 mutant H71C
Assay type: binding
Design: key: rate constant with Cdk2 ÷ rate constant with model thiol (fold)
conditions-used: Cdk2 H71C, additional mutation C177A
value-type: Rate enhancement, Cdk2 H71C

Below: 4 molecules and their reported Rate enhancement, Cdk2 H71C.
C=CC(=O)NC1C[C@@H](C(=C)C)CC=C1C (stereo partly drawn) = 0.248
C=CC(=O)Nc1ccc(C23CC4CC(CC(O)(C4)C2)C3)cc1 = 0
C=CC(=O)Nc1cccc2ncccc12 = 0.317
C=CC(=O)Nc1nc2ccccc2n1CCc1ccccn1 = 8.256

a: C=CC(=O)Nc1ccccc1C(=O)c1ccccc1
b: C=CC(=O)NCCNC(=O)C1CCCN1S(=O)(=O)c1ccccc1 (stereo not drawn)
Endpoint returns whichever of a and b has the numerically higher Rate enhancement, Cdk2 H71C. Lab note: record the label of whichever item you select.
a

###

system-under-test: Cdk2(C177A, F80C) (Homo sapiens, UniProt P24941, C177A/F80C)
Construct: poly-histidine; made in house; host or cells: E. coli
assay-overview: Kinetic thiol consumption assay with Cdk2 mutant F80C, incl. kobs versus concentration (Kd, k2)
Type: binding
Parameters: key: Cdk2 rate constant divided by model-thiol rate constant
conditions-used: Cdk2 F80C, additional mutation C177A
value-type: Rate enhancement, Cdk2 F80C

Below: 7 compounds and their reported Rate enhancement, Cdk2 F80C.
C=CC(=O)N1CCCN2C(=O)CCC12c1ccc(OC)cc1 (stereo not drawn) = 0.3123
O=S1(=O)C=CC(Br)C1 (stereo not drawn) = 0.00861
C=CC(=O)N1CCC2(CC1)NC(=O)N(C)C2=O = 0.1163
C=CS(=O)(=O)c1ccccc1 = 0.0006656
C=CC(=O)N(CC(=O)NC1CC1)C1CC1 = 0.02876
C=CC(=O)N(C)C1CC(OCC)C12CCC2 (stereo not drawn) = 0.8022
C=CC(=O)N1CCC(c2nc3ccccc3[nH]2)CC1 = 0.816

a: C=CC(=O)Nc1cccc(-c2nnnn2C2CC2)c1
b: O=C(CCl)NCCc1c[nH]c2ccccc12
c: C=CC(=O)N1CCCCCC1c1cccnc1 (stereo not drawn)
d: C=CC(=O)NCC1CCCN1S(=O)(=O)c1ccc(C)cc1 (stereo not drawn)
e: C=CC(=O)N(CC(=O)N1CCCC1)CC1CCCO1 (stereo not drawn)
# rank by Rate enhancement, Cdk2 F80C, ascending (min first) Give the labels in the order requested.
e, c, d, b, a

###

system-under-test: human cyclin-dependent kinase 2 (Cdk2) (Homo sapiens, UniProt P24941)
Construct: poly-histidine; made in house; host or cells: E. coli
assay-overview: Kinetic thiol consumption assay with wild type Cdk2 (C177)
Format: binding
Design: unit not given here
conditions-used: 500 μM ligand, 5 μM thiol, phosphate buffer pH 8
Description: A library of 120 acrylamides was screened against a) human cyclin-dependent kinase 2 (Cdk2, which contains one surface exposed cysteine residue—C177), prepared by cloning cDNA into the pRSETA bacterial expression vector to generate a poly-histidine tagged Cdk2 fusion that was purified from E. coli using standard techniques, and b) a model thiol (specific details are given below). […] Fluorescence measurements were normalized against a DMSO/thiol only control and plotted against time. […]
value-type: Rate constant with Cdk2 (k(Cdk2))

C=CC(=O)Nc1cccc(C(=O)c2ccccc2)c1 = 0.03272
C=CC(=O)Nc1ccc(-c2ncccn2)cc1 = 0.05015

A: C=CC(=O)N(Cc1ccco1)C12CC3CC(CC(C3)C1)C2
B: C=CC(=O)Nc1ccc(C(=O)NC2CCCC2)cc1
C: C=CC(=O)Nc1ccc2nc(C)[nH]c2c1
D: C=CC(=O)N1CCCC1c1ccc(OC)cc1 (stereo not drawn)
# rank by Rate constant with Cdk2 (k(Cdk2)), ascending (min first) Give the labels in the order requested.
A, D, C, B
(A: 0.00288, D: 0.00448, C: 0.00827, B: 0.07947)

###

system-under-test: Cdk2(S181C) (C177A) (Homo sapiens, UniProt P24941, C177A/S181C)
Construct: poly-histidine; made in house; host or cells: E. coli
assay-overview: Kinetic thiol consumption assay with Cdk2 mutant S181C
Type: binding
Set-up: key: rate constant with Cdk2 ÷ rate constant with model thiol (fold)
conditions-used: Cdk2 S181C, additional mutation C177A
value-type: Rate enhancement, Cdk2 S181C

Below: 4 compounds and their reported Rate enhancement, Cdk2 S181C.
C=CC(=O)NCCNC(=O)C1CCCN1S(=O)(=O)c1ccccc1 (stereo not drawn) = 0
C=CC(=O)N(CCCN1CCOCC1)Cc1ccncc1 = 0.1475
C=CC(=O)N1CC2CCCCCCC21 (stereo not drawn) = 0.8872
C=CC(=O)NCc1ccccc1 = 0.4707

a: C=CC(=O)N1CCn2c(Cc3ccccc3)nnc2C1
b: C=CC(=O)N1CC(n2cccn2)C1
Endpoint returns whichever of a and b has the numerically higher Rate enhancement, Cdk2 S181C. Lab note: record the label of whichever item you select.
b

###

system-under-test: Cdk2(N272C) (C177A) (Homo sapiens, UniProt P24941, C177A/N272C)
Construct: poly-histidine; made in house; host or cells: E. coli
assay-overview: Kinetic thiol consumption assay with Cdk2 mutant N272C
Type: binding
Design: key: rate constant with Cdk2 ÷ rate constant with model thiol (fold)
conditions-used: Cdk2 N272, additional mutation C177A
value-type: Rate enhancement, Cdk2 N272

Below: 3 compounds and their reported Rate enhancement, Cdk2 N272.
C=CC(=O)NCc1ccc(-c2ccccc2)cc1 [EL-1050] = 0.1784
C=CC(=O)Nc1ccc2c(c1)OC1(CCCC1)O2 [CA-054] = 1.248
C=CC(=O)N1CC(CCN2CCCC2=O)c2ccccc21 (centres unmarked) [CA-089] = 4.344

P: C=CC(=O)Nc1ccccc1-c1ccccc1 [EL-1012]
Q: C=CC(=O)N(Cc1ccco1)Cc1cc2cc(C)ccc2o1 [CA-178]
R: C=CC(=O)N1CCc2sccc2C1c1cccs1 (centres unmarked) [CA-056]
S: C=CC(=O)N1CCC2(CCCN(Cc3ccccc3)C2)C1 (centres unmarked) [CA-141]
# rank by Rate enhancement, Cdk2 N272, ascending (min first) Give the labels in the order requested.
P, S, R, Q
(P: 0, S: 0.2507, R: 1.548, Q: 3.356)

###

system-under-test: Cdk2(C177A, F80C) (Homo sapiens, UniProt P24941, C177A/F80C)
Construct: poly-histidine; made in house; host or cells: E. coli
assay-overview: Kinetic thiol consumption assay with Cdk2 mutant F80C, incl. kobs versus concentration (Kd, k2)
Assay type: binding
Set-up: key: Cdk2 rate constant divided by model-thiol rate constant
conditions-used: Cdk2 F80C, additional mutation C177A
Protocol: Therefore the assay can be used to calculate both k2 and Kd by experimentally determining kobs at a suitable range of ligand candidate concentrations. Typically Kd and k2 would then be determined by fitting a hyperbolic curve to a plot of kobs against ligand candidate concentration (FIG. 9). […] Fluorescence measurements were normalized against a DMSO/thiol only control and plotted against time. […] Rate constants were calculated as described in the methodology section of Examples 1 and 2.
value-type: Rate enhancement, Cdk2 F80C

Below: 2 molecules and their reported Rate enhancement, Cdk2 F80C.
C=CC(=O)NC1(C2CC2)CC1 [CA-047] = 0.1307
C=CC(=O)NCc1ccc(C(=O)OC)cc1 [BN-65] = 2.644

1: C=CC(=O)N1CCCC2(CCCc3ccccc32)C1 (stereo not drawn) [CA-084]
2: C=CC(=O)Nc1ccc(C(=O)NC2CCCC2)cc1 [EL-1114]
Compare 1 and 2 and name the one whose reported Rate enhancement, Cdk2 F80C is smaller. Lab note: record the label of whichever item you select.
1
(1: 1.811, 2: 9.237)

###

system-under-test: human cyclin-dependent kinase 2 (Cdk2) (Homo sapiens)
Construct: poly-histidine; made in house; host or cells: E. coli
assay-overview: Kinetic thiol consumption assay with wild type Cdk2 (C177)
Assay type: binding
Parameters: key: k(Cdk2) divided by k(model thiol)
conditions-used: Cdk2 WT, no additional mutations
value-type: Rate enhancement, Cdk2 WT

Below: 8 compounds and their reported Rate enhancement, Cdk2 WT.
C=CC(=O)N1CCCC1CC1CC2CCC1C2 (stereo not drawn) = 1.059
C=CC(=O)N1CCCN(Cc2noc(C3CC3)n2)CC1 = 1.018
C=CC(=O)Nc1cccc(-c2cc3ccccc3[nH]2)c1 = 0.9235
C=CC(=O)N1CCN(c2ccccc2[N+](=O)[O-])CC1 = 1.609
C=CC(=O)NCc1ccc(F)cc1 = 1.86
C=CC(=O)N1CCN(S(C)(=O)=O)CC1c1ccccc1 (stereo not drawn) = 0.4122
C=CC(=O)N1CCCCCC1c1cccnc1 (stereo not drawn) = 0.3281
O=C(CCl)N1CCSc2ccccc21 = 4.361

1: C=CC(=O)N1CCCc2sccc2C1
2: C=CC(=O)NCC1CN(C2CC2)CCO1 (stereo not drawn)
Endpoint returns whichever of 1 and 2 has the numerically higher Rate enhancement, Cdk2 WT. Lab note: record the label of whichever item you select.
1
(1: 1.053, 2: 0.5218)

Values compiled from patent US11415579B2.
